- ASSAY DETAILS: qHTS assay for identifying genotoxic compounds that show differential cytotoxicity against isogenic chicken DT40 cell lines with known DNA damage response pathways - Rev3 mutant cell line (AID 743014); further: nearly all actives have a fitted effect of over 55% in size
- CONDITION: chicken DT40 Rev3-/- viability, CellTiter-Glo, 40 h; series mostly up to 68.4 µM
Inconclusive results are not listed. Activity calls are given as the source filed them. The call rests on the fitted dose curve; in most records, active means well fitted cell-killing curve with a large enough effect in the repeat runs; inconclusive means weak or mixed curves, or effect the other way; inactive means no such curve, though single readings can be large or run the other way.
Possible outcomes: yes (1) for active, no (0) for inactive

compound=O=S(=O)(O)c1ccccc1/C=C/c1ccc(-c2ccc(/C=C/c3ccccc3S(=O)(=O)O)cc2)cc1 category="no (0)"
compound=O=C1NC(=O)[C@@H]2CC=CC[C@H]12 category="yes (1)"
compound="CCCCCC(C)OC(=O)COc1ccc(Cl)c2cccnc12 (stereo not drawn)" category="no (0)"
compound=CCn1c2ccccc2c2cc([N+](=O)[O-])ccc21 category="yes (1)"
compound=CNc1ccc([N+](=O)[O-])cc1 category="yes (1)"
compound="CCN1C(=O)c2ccccc2C1Nc1ccc(OCCN2CCCCC2)cc1 (stereo not drawn)" category="no (0)"
compound=O=C1C(c2[nH]c3ccc(S(=O)(=O)O)cc3c2O)=Nc2ccc(S(=O)(=O)O)cc21 category="no (0)"
compound=CC(C)CCOC(=O)/C=C/c1ccccc1 category="no (0)"
compound=CC1=CCC(=C(C)C)CC1 category="no (0)"
compound=COc1cc(C)ccc1O category="no (0)"
compound=Cc1ccc(O)c(N)c1 category="yes (1)"
compound=O=C(c1ccc(O)c(O)c1)c1ccc(O)cc1O category="yes (1)"
compound=O=[N+]([O-])c1ccc(O)cc1C(F)(F)F category="yes (1)"

Cited source: PubChem BioAssay (Tox21)
